These measurements were taken from the supplement of paper PMC12764529.

Assay: folding stability dG unfold from chymotrypsin proteolysis; higher = more stable
PROPERTY NAME: folding stability dG unfold (kcal/mol)
Answer in kcal/mol, number only, no unit symbol.

Reference set (2 entries):
POLYMER SEQUENCE	UNITS TEXT	ASSAY VALUE
SAGGDPDGKPKIEIKIKDINVEPDPDNGYYRATIKIRFPNGREINFDIPMPPGQTAEQVKEQAREMIQSAGG [r13_578_TrROS]	kcal/mol	1.24
SGTRTVTVTGAVLSRLPDGTLVTDPGEAPVTVPVPPPKPRIEVPPELREKLREAAEKLGLELTEEDIETASA [r9_487_TrMRF]	kcal/mol	-0.896

// lookup folding stability dG unfold for SAGGSAMTTVTWTFPPSTSVEEAIEALKAQLEAERNEKIEIPSISVSTTGDTITVTLPIKIEPLPASAGGSA [r15_105_JUSTAS]
0.327

// lookup folding stability dG unfold for SAGGSAGGSKKKVKVVKVEKPEGDYYVVTVYYEDGKLLKKVVFPKGVKPEEVLEKVKKLVEEESAGGSAGGS [r12_798_TrMRF]
2.82

---

Assay: folding stability dG unfold (combined trypsin and chymotrypsin); higher = more stable
A collection of sequences and their measured folding stability dG unfold
Answer in kJ/mol, number only, no unit symbol.

Reference set (5 entries):
POLYMER SEQUENCE	UNITS TEXT	folding stability dG unfold
SAGGSAGGSAGGSAPPKVEIEVTVLVKDEDGRLYVFKAKATFDLETNELTVEVEVYELPSAGGSAGGSAGGS [r4_445_TrROS_Hall]	kJ/mol	19.5
SAGGSAGGDESSTPPVTTTSTTPLPDGSTVTVTSTTTYPDSTTTTTKTYSNGSTTTSTTTTPGSSAGGSAGG [r6_910_JUSTAS]	kJ/mol	-1.19
SAGGSAGGSAGLELTVGDVPVDVYVDPDTERALAYFPLFNRVAIVDLPTGKVYVVPLDDILSAGGSAGGSAG [r3_137_TrMRF]	kJ/mol	4.82
SAGGSAGGGSMGSVSVSETTTTSTEGSTTTTTTVHTTTVGGTTTTTTTTTTTSPTPGASSPATASAGGSAGG [r6_684_JUSTAS]	kJ/mol	7.73
SAGGSAGGMKVTTEGNAAGTNTVTVSYPDGSSVTRTLAPDDVVEVPVGGEVVLTVTVTANPDLPSAGGSAGG [r6_583_JUSTAS]	kJ/mol	-0.226

// lookup folding stability dG unfold for SAGGSAGGSMKTITVTFSSEEEAKKAAEEILKKEGFDEKIKEVTLTYSKEGNVLTGTVTVKTPSAGGSAGGS [r12_7_JUSTAS]
3.96

// lookup folding stability dG unfold for SAGGSAKMVLVKIKVEGMSVEEVKKLLEEAGAKVVKIDEEKKVIIVEVSPEKAEELAKKLGFEVEVSAGGSA [r15_731_TrROS_Hall]
14.4

// lookup folding stability dG unfold for SMYTADFILPDEVLKTVPLEGKSVEEALEKVKEIVKQLPPNTPLLVKISYTEVDPKTGTTRTGTITVPLKSA [r9_245_JUSTAS]
9.22

// lookup folding stability dG unfold for SAGGSAGGSMETVTVLLNTPGTPVTFTFPVPAGVGEEAVKELVRKALPEVEIEVVEITTTPAASAGGSAGGS [r12_427_JUSTAS]
1.94

// lookup folding stability dG unfold for SAGGSADEELLEKAKEALKKAEPPKIVVLNLPLPSGKELKVTLDPTTNKFTAEFPDGGSKTFDFPESAGGSA [r15_977_JUSTAS]
3.59

// lookup folding stability dG unfold for SMYYYGKFTFTNPTGGPTIGDVYIITKSKEEAEALAKEEASKKNVKVEIEIKEIPESEYENPEKVKELLSSA [r9_864_JUSTAS]
3.3

// lookup folding stability dG unfold for SAGGSIEEVIEELIKSGKPPSKEEIKEAIKKAIEEEVKKKGKKIPKVNIKKITSNPETGKIPIEIIISAGGS [r16_365_JUSTAS]
1.49
